The following compounds are shown together with reported Cmax values.
Assay: Cmax in mouse at 2 mg/kg, po
Format: ADME, organism-based
Parameters: dose 2 mg/kg, route oral
Details: in vivo
Express your answer in ng/mL, writing the number without its unit.

CO[C@H]1[C@@H](O)[C@H](O)[C@H](OC[C@@]23C[C@@H]4[C@H](C)CC[C@H]4[C@@]4(C=O)CC2C=C(C(C)C)[C@@]34C(=O)O)O[C@@H]1C | 20

Next compound, Cmax to be filled in.
Prompt: So what's the measured Cmax for this one? "CCCC[C@@H]1C[C@H](C23C[C@@H]4[C@H](C)CC[C@H]4[C@@]4(C=O)CC2C=C(C(C)C)[C@@]34C(=O)O)O[C@H]1CN1CCC(N2C[C@@H](C)O[C@@H](C)C2)CC1"
Completion: 1000
